Where do the numbers come from? From patent US20120214862A1.

I'd appreciate it if you could supply percent inhibition of Factor 7 mRNA, relative to untreated control cells values for the items below.
Test system: human Factor 7 mRNA
method: Dose-dependent antisense inhibition of human Factor 7 in HepB3 cells, transfection with lipofectin
Type: cell-based
settings: 100 nM, lipofectin, HepB3 cells, 16 hours
Experimental: Cells were plated at a density of 4,000 cells per well and treated with lipofectin reagent with 3.125 nM, 6.25 nM, 12.5 nM, 25 nM, 50 nM, and 100 nM concentrations of antisense oligonucleotide, as indicated in Table 3. After a treatment period of approximately 16 hours, RNA was isolated from the cells and Factor 7 mRNA levels were measured by real-time RT-PCR, as described herein. […] Factor 7 mRNA levels were adjusted according to total RNA content as measured by RIBOGREEN®. […]
In the oligonucleotide strings, read from the 5' end, every base follows the letter of its sugar. An asterisk marks phosphorothioate; unmarked linkages are phosphodiester. Other units and linkages are bracketed, terminal groups are in braces. A string of capitals states the bases alone. e = 2'-O-(2-methoxyethyl) (MOE); [5mC] = 5-methylcytosine; d = 2'-deoxy (DNA)
One number for each entry, in %.

Known results for substances:
substance	assay value
422150 (antisense eG*e[5mC]*eA*dT*dG*dG*dT*dG*dA*dT*dG*d[5mC]*dT*dT*d[5mC]*dT*dG*eA*eA*eT) [compound 422150]	87
422086 (antisense eT*eG*e[5mC]*eA*eT*dG*dG*dT*dG*dA*dT*dG*d[5mC]*dT*dT*e[5mC]*eT*eG*eA*eA) [compound 422086]	90
422177 (antisense e[5mC]*e[5mC]*e[5mC]*dG*d[5mC]*d[5mC]*dG*dG*d[5mC]*dT*d[5mC]*dT*dG*d[5mC]*dT*d[5mC]*dA*eT*e[5mC]*e[5mC]) [compound 422177]	88

Okay, here is my list. What is percent inhibition of Factor 7 mRNA, relative to untreated control cells for each of these?
1. 422228 (antisense eT*eG*d[5mC]*dA*dT*dG*dG*dT*dG*dA*dT*dG*d[5mC]*dT*dT*e[5mC]*eT*eG*eA*eA) [compound 422228]
2. 422142 (antisense eG*eA*eG*eT*eT*d[5mC]*dT*dG*d[5mC]*dA*dG*dG*dA*dG*d[5mC]*eG*eG*e[5mC]*e[5mC]*eT) [compound 422142]
3. 422296 (antisense e[5mC]*e[5mC]*dG*dA*dG*dT*dT*d[5mC]*dT*dG*d[5mC]*dA*dG*dG*dA*eG*e[5mC]*eG*eG*e[5mC]) [compound 422296]
4. 422183 (antisense eG*e[5mC]*eG*d[5mC]*d[5mC]*dA*d[5mC]*d[5mC]*d[5mC]*dG*d[5mC]*d[5mC]*dG*dG*d[5mC]*dT*d[5mC]*eT*eG*e[5mC]) [compound 422183]

Outgoing:
[90, 68, 82, 88]

* * *

Tested on: human Factor 7 mRNA
method: Antisense inhibition of human Factor 7 mRNA in HepB3 cells, lipofectin, 50 nM, real-time RT-PCR
Assay type: cell-based
settings: HepB3 cells; gapmers targeted to nucleobases 14707 to 14732 of SEQ ID NO: 1 (Table 11)
In the oligonucleotide strings, read from the 5' end, every base follows the letter of its sugar. An asterisk marks phosphorothioate; unmarked linkages are phosphodiester. Other units and linkages are bracketed, terminal groups are in braces. A string of capitals states the bases alone. e = 2'-O-(2-methoxyethyl) (MOE); [5mC] = 5-methylcytosine; d = 2'-deoxy (DNA)
I'd appreciate it if you could supply % Inhibition of human Factor 7 mRNA levels values for the items below.
Numbers only, in %.

Known results for substances:
substance	assayed system	measurement units	assay value
422278 (antisense eG*e[5mC]*d[5mC]*dT*dG*dA*dG*dG*d[5mC]*d[5mC]*dA*dG*d[5mC]*dA*dG*eA*eT*e[5mC]*eA*e[5mC]) [compound 422278]	human Factor 7 mRNA	%	64
422277 (antisense e[5mC]*e[5mC]*dT*dG*dA*dG*dG*d[5mC]*d[5mC]*dA*dG*d[5mC]*dA*dG*dA*eT*e[5mC]*eA*e[5mC]*eG) [compound 422277]	human Factor 7 mRNA	%	56
422204 (antisense eG*e[5mC]*eA*dG*d[5mC]*d[5mC]*dT*dG*dA*dG*dG*d[5mC]*d[5mC]*dA*dG*d[5mC]*dA*eG*eA*eT) [compound 422204]	human Factor 7 mRNA	%	72
422280 (antisense e[5mC]*eA*dG*d[5mC]*d[5mC]*dT*dG*dA*dG*dG*d[5mC]*d[5mC]*dA*dG*d[5mC]*eA*eG*eA*eT*e[5mC]) [compound 422280]	human Factor 7 mRNA	%	52

API: the following record is the query input.
Incoming: Requested field: % Inhibition of human Factor 7 mRNA levels. Item: 422281 (antisense eG*e[5mC]*dA*dG*d[5mC]*d[5mC]*dT*dG*dA*dG*dG*d[5mC]*d[5mC]*dA*dG*e[5mC]*eA*eG*eA*eT) [compound 422281]
Outgoing: 57

* * *

I'd appreciate it if you could supply % Inhibition of human Factor 7 mRNA levels values for the items below.
System: human Factor 7 mRNA
method: Antisense inhibition of human Factor 7 mRNA in HepB3 cells, lipofectin, 50 nM, real-time RT-PCR
Assay type: cell-based
settings: HepB3 cells; gapmers targeted to nucleobases 13760 to 13789 of SEQ ID NO: 1 (Table 10)
In the oligonucleotide strings, read from the 5' end, every base follows the letter of its sugar. An asterisk marks phosphorothioate; unmarked linkages are phosphodiester. Other units and linkages are bracketed, terminal groups are in braces. A string of capitals states the bases alone. e = 2'-O-(2-methoxyethyl) (MOE); [5mC] = 5-methylcytosine; d = 2'-deoxy (DNA)
One number for each entry, in %.

Okay, here is my list. What is % Inhibition of human Factor 7 mRNA levels for each of these?
1. 422262 (antisense e[5mC]*eT*dG*d[5mC]*dG*d[5mC]*d[5mC]*dA*d[5mC]*d[5mC]*d[5mC]*dG*d[5mC]*d[5mC]*dG*eG*e[5mC]*eT*e[5mC]*eT) [compound 422262]
2. 422177 (antisense e[5mC]*e[5mC]*e[5mC]*dG*d[5mC]*d[5mC]*dG*dG*d[5mC]*dT*d[5mC]*dT*dG*d[5mC]*dT*d[5mC]*dA*eT*e[5mC]*e[5mC]) [compound 422177]
3. 422110 (antisense eA*e[5mC]*e[5mC]*e[5mC]*eG*d[5mC]*d[5mC]*dG*dG*d[5mC]*dT*d[5mC]*dT*dG*d[5mC]*eT*e[5mC]*eA*eT*e[5mC]) [compound 422110]
4. 422114 (antisense e[5mC]*eG*e[5mC]*e[5mC]*eA*d[5mC]*d[5mC]*d[5mC]*dG*d[5mC]*d[5mC]*dG*dG*d[5mC]*dT*e[5mC]*eT*eG*e[5mC]*eT) [compound 422114]

Outgoing:
1. 0
2. 74
3. 53
4. 50

* * *

I'd appreciate it if you could supply percent inhibition of Factor 7 mRNA, relative to untreated control cells values for the items below.
System: human Factor 7 mRNA
method: Dose-dependent antisense inhibition of human Factor 7 in HepB3 cells, transfection with electroporation
Type: cell-based
settings: 3.125 μM, 16 hours (Example 8, Table 16)
In the oligonucleotide strings, read from the 5' end, every base follows the letter of its sugar. An asterisk marks phosphorothioate; unmarked linkages are phosphodiester. Other units and linkages are bracketed, terminal groups are in braces. A string of capitals states the bases alone. e = 2'-O-(2-methoxyethyl) (MOE); [5mC] = 5-methylcytosine; d = 2'-deoxy (DNA)
Answers are plain numbers, in %.

Known results for substances:
substance	assay value
422087 (antisense e[5mC]*eA*eT*eG*e[5mC]*dA*dT*dG*dG*dT*dG*dA*dT*dG*d[5mC]*eT*eT*e[5mC]*eT*eG) [compound 422087]	19
422086 (antisense eT*eG*e[5mC]*eA*eT*dG*dG*dT*dG*dA*dT*dG*d[5mC]*dT*dT*e[5mC]*eT*eG*eA*eA) [compound 422086]	25
407939 (antisense eT*eG*e[5mC]*eA*eG*d[5mC]*d[5mC]*d[5mC]*dG*dG*d[5mC]*dA*d[5mC]*d[5mC]*d[5mC]*eA*eG*e[5mC]*eG*eA) [compound 407939]	35
407935 (antisense eA*eT*eG*e[5mC]*eA*dT*dG*dG*dT*dG*dA*dT*dG*d[5mC]*dT*eT*e[5mC]*eT*eG*eA) [compound 407935]	63
422229 (antisense eA*eT*dG*d[5mC]*dA*dT*dG*dG*dT*dG*dA*dT*dG*d[5mC]*dT*eT*e[5mC]*eT*eG*eA) [compound 422229]	30

Okay, here is my list. What is percent inhibition of Factor 7 mRNA, relative to untreated control cells for each of these?
1. 422183 (antisense eG*e[5mC]*eG*d[5mC]*d[5mC]*dA*d[5mC]*d[5mC]*d[5mC]*dG*d[5mC]*d[5mC]*dG*dG*d[5mC]*dT*d[5mC]*eT*eG*e[5mC]) [compound 422183]
2. 422292 (antisense eG*eT*dT*d[5mC]*dT*dG*d[5mC]*dA*dG*dG*dA*dG*d[5mC]*dG*dG*e[5mC]*e[5mC]*eT*eA*eA) [compound 422292]
3. 422296 (antisense e[5mC]*e[5mC]*dG*dA*dG*dT*dT*d[5mC]*dT*dG*d[5mC]*dA*dG*dG*dA*eG*e[5mC]*eG*eG*e[5mC]) [compound 422296]
4. 422142 (antisense eG*eA*eG*eT*eT*d[5mC]*dT*dG*d[5mC]*dA*dG*dG*dA*dG*d[5mC]*eG*eG*e[5mC]*e[5mC]*eT) [compound 422142]
5. 422130 (antisense eG*e[5mC]*e[5mC]*eT*eG*dA*dG*dG*d[5mC]*d[5mC]*dA*dG*d[5mC]*dA*dG*eA*eT*e[5mC]*eA*e[5mC]) [compound 422130]
6. 422150 (antisense eG*e[5mC]*eA*dT*dG*dG*dT*dG*dA*dT*dG*d[5mC]*dT*dT*d[5mC]*dT*dG*eA*eA*eT) [compound 422150]

Outgoing:
[2, 31, 47, 34, 14, 0]
